test system: HMVEC (human neonatal microvascular endothelial cells); test: Cell survival by clonogenic assay (colony count or MTT) in HMVEC; settings: read-out: IC50 clonogenic toxicity values, HMVEC; compounds added in DMSO (<0.5%); MTT assay after 5-7 days in culture
readout_type: IC50

input: Report value only: IC50, HMVEC (human neonatal microvascular endothelial cells), COc1ccc(/C=C\c2cc(O)c(OC)c(OC)c2)cc1O [Combretastatin A3, reference compound]
output: > 12 nM

input: Report value only: IC50, HMVEC (human neonatal microvascular endothelial cells), COc1ccc(/C=C\c2cc(OC)c(OC)c(OC)c2)cc1O
output: 1 to 2 nM

input: Report value only: IC50, HMVEC (human neonatal microvascular endothelial cells), COc1ccc(CCc2cc(OC)c(OC)c(OC)c2)c(O)c1O [Combretastatin B1, reference compound]
output: 200 to 300 nM

input: Report value only: IC50, HMVEC (human neonatal microvascular endothelial cells), COc1ccc(CCc2cc(O)c(OC)c(OC)c2)cc1O [Combretastatin B2, reference compound]
output: 800 to 1000 nM

input: Report value only: IC50, HMVEC (human neonatal microvascular endothelial cells), COc1ccc(/C=C\c2cc(OC)c3c(c2)OCO3)cc1O [Combretastatin A2, reference compound]
output: 30 to 40 nM

input: Report value only: IC50, HMVEC (human neonatal microvascular endothelial cells), COc1ccc(/C=C\c2cc(OC)c(OC)c(OC)c2)c(O)c1O
output: 500 nM

====

system: HMVEC (human neonatal microvascular endothelial cells); assay: Cell survival by clonogenic assay (colony count or MTT) in HMVEC; settings: Homo sapiens, HMVEC, read-out: IC50 values HMVEC
readout_type: IC50

input: Provide measured IC50 value, entry: O=C1N[C@H]2[C@H](O)[C@H](O)[C@@H](O)[C@H](O)[C@@H]2c2cc3c(c(O)c21)OCO3 [Pancratistatin]
output: 20 to 25 µM

====

system: HL60 human leukemic cells; experiment: Cell survival by clonogenic assay in HL-60; format: cell-based; conditions: 5 days exposure (FIG. 2B); read-out: IC50 clonogenic cytotoxicity, HL60
readout_type: IC50

input: Provide measured IC50 value, entry: COc1ccc(/C=C\c2cc(OC)c(OC)c(OC)c2)cc1OP(=O)([O-])[O-].[Na+].[Na+] [Combretastatin A4 Na2PO4, combretastatin A4 disodium phosphate]
output: 1.5 to 2.5 nM

====

system: K562 human leukemic cells; test: Cell survival by clonogenic assay in K562; format: cell-based; conditions: 5 days exposure (FIG. 2B); read-out: IC50 clonogenic cytotoxicity, K562
readout_type: IC50

input: Report value only: IC50, K562 human leukemic cells, COc1ccc(/C=C\c2cc(OC)c(OC)c(OC)c2)cc1OP(=O)([O-])[O-].[Na+].[Na+] [Combretastatin A4 Na2PO4, combretastatin A4 disodium phosphate]
output: 1.5 to 2.5 nM
